metricName: flash point (°C)

compound	measurementUnits	flash point
Cc1ccccc1 [Toluene]	°C	6.0

A = CCCCC(CC)CC
B = Cc1cccc(C)c1O
C = CCCCCCCCCCCCO
D = CCCCC(C)CCCC
# input Place the items in sequence of falling flash point. Could you list the labels in the order requested?
# output C, B, D, A
(C: 125 °C, B: 85.0 °C, D: 39 °C, A: 23.0 °C)

----------
metricName: flash point (°C)

Example cases with answers are listed next.
compound	flash point, °C
CC(C)C[Si](Cl)(Cl)Cl	37.00
CCCCCCCCCCCC[Si](Cl)(Cl)Cl	162.00
C[SiH](C)O[Si](C)(C)C	-19.00
CC(C)(C)O[Si](C)(C)C	14.00
C[SiH](C)C(C)(C)C	-22.00
CCC[SiH](CCC)CCC	43.00
CCCO[Si](C)(C)C	10.00
CCCCC=C[Si](Cl)(Cl)Cl	60.00
CC[SiH3]	-60.00
CO[Si](C)(C)OC	-8.00

P = C=CC=CO[Si](C)(C)C
Q = CCCCCCCCCCCC[Si](C)(Cl)Cl
R = C[Si]1(C)N[Si](C)(C)N[Si](C)(C)N[Si](C)(C)N1
# input Hey, can you sort those compounds up there by flash point, smallest first? Could you list the labels in the order requested?
# output P, R, Q
(P: 25.00 °C, R: 66.00 °C, Q: 143.00 °C)

----------
metricName: flash point (°C)

molecule	measurementUnits	flash point
COc1ccc(O)c(C(C)(C)C)c1.COc1ccc(O)cc1C(C)(C)C [2-tert-butyl-4-methoxyphenol;3-tert-butyl-4-methoxyphenol]	°C	113.00
CCCOC(=O)c1ccc(C(=O)OCCC)nc1 [dipropyl pyridine-2,5-dicarboxylate]	°C	93.00
CCCCOCCOCCO [2-(2-butoxyethoxy)ethanol]	°C	78.00
CCc1cccc(CC)c1N(COC)C(=O)CCl [2-chloro-N-(2,6-diethylphenyl)-N-(methoxymethyl)acetamide]	°C	137.00
C=CCOC(=O)CC(C)C [prop-2-enyl 3-methylbutanoate]	°C	39.00

I = CCCCCSCCCCC [1-pentylsulfanylpentane]
II = C=CCCCCCC [oct-1-ene]
III = CCCCCCCS [heptane-1-thiol]
IV = O=C(O)c1ccc([N+](=O)[O-])cc1 [4-nitrobenzoic acid]
# input Place the items in sequence of falling flash point. Could you list the labels in the order requested?
# output IV, I, III, II
(IV: 202.00 °C, I: 85.00 °C, III: 46.00 °C, II: 21.00 °C)

I = CC1=CCC(O)(C(C)C)CC1 (stereo not given) [4-methyl-1-propan-2-ylcyclohex-3-en-1-ol]
II = CC(=O)OCCOCCOCCOC(C)=O [2-[2-(2-acetyloxyethoxy)ethoxy]ethyl acetate]
# input Looking at I and II , which one comes out lower in flash point terms? Identify your pick by its label.
# output I

----------
metricName: flash point (°C)

Example cases with answers are listed next.
compound	readoutValue
CCC(C)CC [3-methylpentane]	-32
CC(CC(C)(C)C)CC(C)(C)CC(C)(C)C (stereo unspecified) [2,2,4,4,6,8,8-heptamethylnonane]	95
C=C(C)C(C)CC (stereo unspecified) [2,3-dimethyl-1-pentene]	-17
CCCC(O)CC (stereo unspecified) [3-hexanol]	45
CCCCCCCC=O [octanal]	51

I = CCCCC=C(C)C [2-methyl-2-heptene]
II = CCCCCCCCCCC(C)=O [2-dodecanone]
# input Looking at I and II , which one comes out lower in flash point terms? Identify your pick by its label.
# output I

1 = CCCCC#CCCCCC [5-undecyne]
2 = CCCOC=O [propylformate]
3 = CCOC(CC)OCC [1,1-diethoxypropane]
4 = CC(C)C(C)C(C)C(C)C (stereo unspecified) [2,3,4,5-tetramethylhexane]
5 = CCCCC(C=O)CC (stereo unspecified) [2-ethylhexanal]
# input Place the items in sequence of falling flash point. Could you list the labels in the order requested?
# output 1, 5, 4, 3, 2

I = CCC(C)(C)c1ccccc1 [2-phenyl-2-methylbutane]
II = CCCCCC(C)=O [2-heptanone]
III = CC(C)(C)CC(=O)O [3,3-dimethylbutanoicacid]
# input Hey, can you sort those compounds up there by flash point, smallest first? Could you list the labels in the order requested?
# output II, I, III

P = CN1CCOCC1 [N-methylmorpholine]
Q = Cc1ccc(C)c(C)c1C [1,2,3,4-tetramethylbenzene]
# input Between these two entries, P and Q , state which has the higher flash point. Identify your pick by its label.
# output Q
(Q: 68 °C, P: 14 °C)

----------
Overview of reported flash point across a group of compounds:
Hi! Could you send only the number? It should be in °C, unit omitted.

Example cases with answers are listed next.
compound	flash point [°C]
CC[N](CC)[Sn]([N](CC)CC)([N](CC)CC)[N](CC)CC	39.00
C=C[CH2][Sn]([CH2]C=C)([CH2]C=C)[CH2]C=C	75.00

# input Quick check: flash point of CCCCCCC[CH2][Sn]([Cl])([Cl])[CH2]CCCCCCC ?
# output 204.00

# input Quick check: flash point of [CH3][Sn]([CH3])([CH3])[CH2]Cl ?
# output 39.00

# input Quick check: flash point of CCC[CH2][Sn]([CH2]CCC)([CH2]CCC)[S]c1ccccc1 ?
# output 104.00

----------
metricName: flash point (°C)

Example cases with answers are listed next.
compound	readoutValue
C=CC1CCCCC1	21
C=CCCCCCCCCCCC	79

P = CCC(CC)C(C)C
Q = CCCCCC(C)C
R = CCC/C=C/CCC [trans-4-octene]
# input Place the items in sequence of falling flash point. Could you list the labels in the order requested?
# output R, Q, P

----------
metricName: flash point (°C)

Example cases with answers are listed next.
compound	flash point (°C)
OCCc1ccccc1 [2-phenylethanol]	102
CNC(C)C [N-methyl-2-propanamine]	-31
C1CCSC1 [thiacyclopentane]	12
C=Cc1cccc(C)c1 [3-methylstyrene]	51
CCCCCI [1-iodopentane]	43

P = Cc1cccc(C)c1O [2,6-dimethylphenol]
Q = ClC1CCCCC1 [chlorocyclohexane]
R = CCCC(CC)CC [3-ethylhexane]
# input Hey, can you sort those compounds up there by flash point, smallest first? Could you list the labels in the order requested?
# output R, Q, P
(R: 6 °C, Q: 32 °C, P: 73 °C)

----------
metricName: flash point (°C)

compound	readoutValue
CCC(C)c1cccc(C)c1 (stereo unspecified)	63.1

1 = CCCCCCC(C)c1ccccc1 (stereo unspecified)
2 = CC(C)C(C)c1ccccc1 (stereo unspecified)
# input Between these two entries, 1 and 2 , state which has the higher flash point. Identify your pick by its label.
# output 1

A = CCCCCC(C)c1ccccc1 (stereo unspecified)
B = Cc1ccc(C(C)(C)C)cc1
# input Looking at A and B , which one comes out lower in flash point terms? Identify your pick by its label.
# output B
(B: 54.1 °C, A: 87.2 °C)

----------
metricName: flash point (°C)

molecule	flash point [°C]
CCCCCCCCCCCCCCCCCCCl	184.1
CCCCCC(C)Cl (configuration not stated)	39.2
CC(C)CC(C)Cl (configuration not stated)	21
CC(C)CC(C)(C)Cl	29.8
CCCC(C)(Cl)CC (configuration not stated)	33.6

A = CCC(Cl)CC
B = CCCCCCCCCCCCCCCCCCl
C = CCCCCCCCCCC(C)Cl (configuration not stated)
D = CC(C)CCC(C)Cl (configuration not stated)
# input Hey, can you sort those molecules up there by flash point, smallest first? Could you list the labels in the order requested?
# output A, D, C, B
(A: 10 °C, D: 35.2 °C, C: 99.6 °C, B: 145.2 °C)

----------
metricName: flash point (°C)

compound	readoutValue
CCc1ccccc1CC [1,2-Diethylbenzene]	57.2

A = CCCCCC(=O)CCCCC [6-Undecanone]
B = CCCC(CC)CC [Hexane, 3-ethyl-]
C = CC(C)CO [2-Methyl-1-propanol]
D = CCCCC(C)O (centres undefined) [2-Hexanol]
# input Place the items in sequence of falling flash point. Could you list the labels in the order requested?
# output A, D, C, B
(A: 88.4 °C, D: 45.0 °C, C: 29.2 °C, B: 5 °C)

I = CCCCCCCCCO [1-Nonanol]
II = COCCO [Ethanol, 2-methoxy-]
# input Between these two entries, I and II , state which has the higher flash point. Identify your pick by its label.
# output I
(I: 96.0 °C, II: 39.0 °C)

a = CC=C(C)C [2-Butene, 2-methyl-]
b = CCCCC(C)O (centres undefined) [2-HEXANOL]
c = CCC(C)N (centres undefined) [sec-Butylamine]
# input Hey, can you sort those compounds up there by flash point, smallest first? Could you list the labels in the order requested?
# output a, c, b

----------
metricName: flash point (°C)

Example cases with answers are listed next.
compound	readoutValue
CCCCCN	4
COC1CCCC1	-1
CCCCCCCCC(C)O (configuration not stated)	85

P = CCC(S)(CC)CC
Q = C=C1CCCC1
# input Between these two entries, P and Q , state which has the higher flash point. Identify your pick by its label.
# output P
(P: 34 °C, Q: -18 °C)

a = CCCCCC(C)CC (configuration not stated)
b = Cc1ccc(C(C)C)cc1
c = CC1=CCCO1 [2,3-dihydro-5-methylfuran]
# input Place the items in sequence of falling flash point. Could you list the labels in the order requested?
# output b, a, c

a = CCC(C)C(C)=O (configuration not stated)
b = CCCCCCC(C)C
c = C=C(C)C(=O)OC1CCCCC1 [cyclohexylmethacrylate]
# input Place the items in sequence of falling flash point. Could you list the labels in the order requested?
# output c, b, a
(c: 82 °C, b: 24 °C, a: 12 °C)

P = ClC1CCCC1
Q = CC(CCO)CC(C)(C)C (configuration not stated)
# input Looking at P and Q , which one comes out lower in flash point terms? Identify your pick by its label.
# output P

P = CCC(=O)CC
Q = CCCCCCCCC(C)C
R = CCC(C)OC(C)=O (configuration not stated) [sec-butylacetate]
S = CCCCCCC(C)O (configuration not stated)
T = CCCOC(C)=O [propylacetate]
# input Place the items in sequence of falling flash point. Could you list the labels in the order requested?
# output S, Q, R, T, P

I = CCc1cc(C)ccc1C
II = C#CCCCCC
# input Looking at I and II , which one comes out lower in flash point terms? Identify your pick by its label.
# output II
(II: -2 °C, I: 56 °C)

1 = C=CCCCCCCCC
2 = CCNC=O [N-ethylformamide]
3 = CCSCC [diethylsulfide]
# input Hey, can you sort those compounds up there by flash point, smallest first? Could you list the labels in the order requested?
# output 3, 1, 2
